Molecular target: Eosinophil peroxidase (EPX) (UniProt P11678;P11678 P11678:140-250,P11678:251-715)
Sequence (P11678 140-250, chain 1 of 2): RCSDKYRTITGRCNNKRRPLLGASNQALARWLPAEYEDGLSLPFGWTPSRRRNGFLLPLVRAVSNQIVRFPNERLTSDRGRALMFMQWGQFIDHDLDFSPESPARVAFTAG
Sequence (P11678 251-715, chain 2 of 2): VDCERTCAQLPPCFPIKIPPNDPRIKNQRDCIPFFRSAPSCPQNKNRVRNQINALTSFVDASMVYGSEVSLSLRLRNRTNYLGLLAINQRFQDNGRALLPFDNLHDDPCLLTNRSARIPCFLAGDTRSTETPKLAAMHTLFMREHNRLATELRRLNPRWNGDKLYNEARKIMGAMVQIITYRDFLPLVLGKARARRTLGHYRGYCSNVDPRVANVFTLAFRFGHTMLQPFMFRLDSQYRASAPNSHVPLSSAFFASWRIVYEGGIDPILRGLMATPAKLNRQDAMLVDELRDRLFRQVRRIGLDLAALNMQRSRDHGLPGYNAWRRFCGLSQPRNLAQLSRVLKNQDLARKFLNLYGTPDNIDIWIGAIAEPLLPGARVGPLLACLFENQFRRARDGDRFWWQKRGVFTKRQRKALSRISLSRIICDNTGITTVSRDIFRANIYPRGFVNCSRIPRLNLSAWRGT
Experiment: FP; PBS pH 7.4, room temperature
Conditions: tags: Cedarlane #342-60-0.1; untagged commercial protein; label: 5'-FAM
value type: pKd
Note: pKd values are expressed as the negative base-10 logarithm of concentration in M.

Lab book: pKd of ATGCCATCCTACCAACCAGGGGGACAGTGCAAAGGGAGCTCTGAACTCG (ssDNA) [EAP1-05T3] noted as 8.32
